Biological target: Cannabinoid receptor 2 (Homo sapiens, UniProt P34972)
Sequence (P34972 whole entry): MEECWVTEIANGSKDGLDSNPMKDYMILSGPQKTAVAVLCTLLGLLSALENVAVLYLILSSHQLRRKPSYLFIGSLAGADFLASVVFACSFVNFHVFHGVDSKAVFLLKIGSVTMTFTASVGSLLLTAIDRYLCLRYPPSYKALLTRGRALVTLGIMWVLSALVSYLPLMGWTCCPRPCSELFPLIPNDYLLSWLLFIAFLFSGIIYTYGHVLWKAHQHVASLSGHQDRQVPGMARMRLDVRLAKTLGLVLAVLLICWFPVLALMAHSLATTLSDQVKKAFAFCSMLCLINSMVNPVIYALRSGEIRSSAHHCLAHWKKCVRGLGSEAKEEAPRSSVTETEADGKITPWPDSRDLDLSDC
Experiment: Partial agonist activity at human CB2 receptor expressed in CHO-K1 cells co-transfected with human Galpha16 assessed as intracellular calcium flux
Type: functional, cell-based
pEC50: −log10 of the molar value.

[
  {
    "SMILES DATA": "CCCCCn1nc(C(=O)NC(C)(C)CO)cc1-c1ccco1",
    "TARGET DESC": "Cannabinoid receptor 2 (Homo sapiens, UniProt P34972)",
    "pEC50": 7.25
  }
]

----------
Molecular target: Cannabinoid receptor 2 (Homo sapiens)
Test: Agonist activity at human CB2 receptor expressed in CHO-K1 cells co-transfected with human Galpha16 assessed as intracellular calcium flux
Format: functional, cell-based
In plain terms, low EC50, meaning strictly below 100 nM, gives MET, and everything else gives NOT MET.

[
  {
    "SMILES DATA": "CCCCCn1nc(C(=O)NC(C)(C)CO)cc1-c1ccc(C)s1",
    "CLASS ASSIGNMENT": "NOT MET"
  },
  {
    "SMILES DATA": "CCCCCn1nc(C(=O)NC(C)(C)CO)cc1-c1ccc(Cl)s1",
    "CLASS ASSIGNMENT": "NOT MET"
  },
  {
    "SMILES DATA": "CCCCCn1nc(C(=O)NC(C)(C)CO)cc1-c1sccc1Cl",
    "CLASS ASSIGNMENT": "MET"
  },
  {
    "SMILES DATA": "CC(C)(CO)NC(=O)c1cc(-c2cccs2)n(-c2ccc(Cl)cc2)n1",
    "CLASS ASSIGNMENT": "NOT MET"
  },
  {
    "SMILES DATA": "COCCn1nc(C(=O)NC(C)(C)CO)cc1-c1cccs1",
    "CLASS ASSIGNMENT": "NOT MET"
  },
  {
    "SMILES DATA": "CCCCCn1nc(-c2cccs2)cc1C(=O)NC(C)(C)CO",
    "CLASS ASSIGNMENT": "NOT MET"
  },
  {
    "SMILES DATA": "CCCCCn1nc(C(=O)NC(C)(C)CO)cc1-c1ccsc1",
    "CLASS ASSIGNMENT": "NOT MET"
  },
  {
    "SMILES DATA": "CCCCCn1nc(-c2ccco2)cc1C(=O)NC(C)(C)CO",
    "CLASS ASSIGNMENT": "NOT MET"
  },
  {
    "SMILES DATA": "CCCCCn1nc(C(=O)NC(C)(C)CO)cc1-c1nccn1C",
    "CLASS ASSIGNMENT": "NOT MET"
  },
  {
    "SMILES DATA": "CCCCCn1nc(-c2cccn2C)cc1C(=O)NC(C)(C)CO",
    "CLASS ASSIGNMENT": "NOT MET"
  },
  {
    "SMILES DATA": "CCCCCn1nc(-c2cccn2CC)cc1C(=O)NC(C)(C)CO",
    "CLASS ASSIGNMENT": "NOT MET"
  },
  {
    "SMILES DATA": "COc1ccc(C(=O)c2c(C)n(CCN3CCOCC3)c3cc(I)ccc23)cc1",
    "CLASS ASSIGNMENT": "NOT MET"
  },
  {
    "SMILES DATA": "CCCCCn1nc(C(=O)NC(C)(C)CO)cc1-c1nccs1",
    "CLASS ASSIGNMENT": "NOT MET"
  },
  {
    "SMILES DATA": "CCCCCn1nc(C(=O)NC(C)(C)CO)cc1-c1cc(C)cs1",
    "CLASS ASSIGNMENT": "NOT MET"
  },
  {
    "SMILES DATA": "CCCCCCC(C)(C)c1ccc([C@@H]2C[C@H](C)CC[C@H]2CCCO)c(O)c1",
    "CLASS ASSIGNMENT": "MET"
  },
  {
    "SMILES DATA": "CCCCn1nc(C(=O)NC(C)(C)CO)cc1-c1cncs1",
    "CLASS ASSIGNMENT": "NOT MET"
  },
  {
    "SMILES DATA": "CCCCn1nc(C(=O)NC(C)(C)CO)cc1-c1cccs1",
    "CLASS ASSIGNMENT": "MET"
  },
  {
    "SMILES DATA": "CCCCCn1nc(C(=O)NC(C)(C)CO)cc1-c1cccn1CC",
    "CLASS ASSIGNMENT": "MET"
  },
  {
    "SMILES DATA": "CCCCCn1nc(C(=O)NC(C)(C)CO)cc1-c1ccnn1C",
    "CLASS ASSIGNMENT": "NOT MET"
  },
  {
    "SMILES DATA": "CCCCCn1nc(C(=O)NC(C)(C)CO)cc1-c1cc(Cl)cs1",
    "CLASS ASSIGNMENT": "NOT MET"
  },
  {
    "SMILES DATA": "CCCCn1nc(C(=O)NC(C)(C)CO)cc1-c1ccn(C)c1",
    "CLASS ASSIGNMENT": "NOT MET"
  },
  {
    "SMILES DATA": "CCCCCn1nc(C(=O)NC(C)(C)CO)cc1-c1cccn1C",
    "CLASS ASSIGNMENT": "MET"
  },
  {
    "SMILES DATA": "CCCCCn1nc(C(=O)NC(C)(C)CO)cc1-c1cccs1",
    "CLASS ASSIGNMENT": "MET"
  },
  {
    "SMILES DATA": "CC(C)(CO)NC(=O)c1cc(-c2cccs2)n(-c2ccc(F)cc2)n1",
    "CLASS ASSIGNMENT": "NOT MET"
  }
]

----------
Target: UniProtKB P34972
Assay: Antagonist activity at human CB2 receptor expressed in CHO-K1 cells co-transfected with human Galpha16 assessed as intracellular calcium flux
pIC50: −log10 of the molar value.
# reported pIC50; entries follow
MEASUREMENT TYPE: pIC50

[
  {
    "SMILES DATA": "CCCCCn1nc(C(=O)NC(C)(C)CO)cc1-c1sccc1C",
    "VALUE OBSERVED": "< 4.00"
  },
  {
    "SMILES DATA": "CCCCCn1nc(C(=O)NC(C)(C)CO)cc1-c1nccn1C",
    "VALUE OBSERVED": "< 4.00"
  },
  {
    "SMILES DATA": "COc1ccc(C(=O)c2c(C)n(CCN3CCOCC3)c3cc(I)ccc23)cc1",
    "VALUE OBSERVED": 6.75
  },
  {
    "SMILES DATA": "CCCCn1nc(C(=O)NC(C)(C)CO)cc1-c1cccs1",
    "VALUE OBSERVED": "< 4.00"
  },
  {
    "SMILES DATA": "COc1ccc(-n2nc(C(=O)NC(C)(C)CO)cc2-c2cccs2)cc1",
    "VALUE OBSERVED": "< 4.00"
  },
  {
    "SMILES DATA": "CCCCCn1nc(C(=O)NC(C)(C)CO)cc1-c1ccnn1C",
    "VALUE OBSERVED": "< 4.00"
  }
]

----------
Biological target: Cannabinoid receptor 1 (Homo sapiens)
Sequence (P21554 whole entry): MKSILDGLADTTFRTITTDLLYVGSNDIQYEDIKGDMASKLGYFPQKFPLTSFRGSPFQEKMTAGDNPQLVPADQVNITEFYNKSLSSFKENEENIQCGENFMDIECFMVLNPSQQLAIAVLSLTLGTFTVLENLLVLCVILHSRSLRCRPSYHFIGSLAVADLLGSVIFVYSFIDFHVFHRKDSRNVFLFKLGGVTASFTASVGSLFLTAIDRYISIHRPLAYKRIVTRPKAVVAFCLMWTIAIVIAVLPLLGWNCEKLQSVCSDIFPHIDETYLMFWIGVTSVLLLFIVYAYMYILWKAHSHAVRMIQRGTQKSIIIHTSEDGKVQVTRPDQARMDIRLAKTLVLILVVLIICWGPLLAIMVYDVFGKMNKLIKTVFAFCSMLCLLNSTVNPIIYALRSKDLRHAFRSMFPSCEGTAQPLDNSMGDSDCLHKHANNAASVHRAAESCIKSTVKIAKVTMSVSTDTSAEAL
Test: Antagonist activity at human CB1 receptor expressed in CHO-K1 cells co-transfected with human Galpha16 assessed as intracellular calcium flux
pIC50: −log10 of the molar value.

[
  {
    "SMILES DATA": "CCCCCn1nc(C(=O)NC(C)(C)CO)cc1-c1nccn1C",
    "pIC50": "< 4.00"
  },
  {
    "SMILES DATA": "CC(C)(CO)NC(=O)c1cc(-c2cccs2)n(CC2CC2)n1",
    "pIC50": "< 4.00"
  },
  {
    "SMILES DATA": "CCCCCCn1nc(C(=O)NC(C)(C)CO)cc1-c1cccs1",
    "pIC50": "< 4.00"
  },
  {
    "SMILES DATA": "CC(C)(CO)NC(=O)c1cc(-c2cccs2)n(-c2ccc(F)cc2)n1",
    "pIC50": "< 4.00"
  },
  {
    "SMILES DATA": "CCCCCn1nc(C(=O)NC(C)(C)CO)cc1-c1ccc(Cl)s1",
    "pIC50": "< 4.00"
  },
  {
    "SMILES DATA": "CCCCCn1nc(C(=O)NC(C)(C)CO)cc1-c1ccnn1C",
    "pIC50": "< 4.00"
  },
  {
    "SMILES DATA": "CCCCCn1nc(C(=O)NC(C)(C)CO)cc1-c1cc(C)cs1",
    "pIC50": "< 4.00"
  },
  {
    "SMILES DATA": "CCCCCn1nc(-c2cccn2CC)cc1C(=O)NC(C)(C)CO",
    "pIC50": "< 4.00"
  },
  {
    "SMILES DATA": "CCCCCn1nc(C(=O)NC(C)(C)CO)cc1-c1ccc(C)s1",
    "pIC50": "< 4.00"
  },
  {
    "SMILES DATA": "CCCCCn1nc(C(=O)NC(C)(C)CO)cc1-c1nccs1",
    "pIC50": "< 4.00"
  },
  {
    "SMILES DATA": "COc1ccc(-n2nc(C(=O)NC(C)(C)CO)cc2-c2cccs2)cc1",
    "pIC50": "< 4.00"
  },
  {
    "SMILES DATA": "CCCCn1nc(C(=O)NC(C)(C)CO)cc1-c1cncs1",
    "pIC50": "< 4.00"
  },
  {
    "SMILES DATA": "CCCCCn1nc(C(=O)NC(C)(C)CO)cc1-c1cccn1CC",
    "pIC50": "< 4.00"
  },
  {
    "SMILES DATA": "CCCCCn1nc(C(=O)NC(C)(C)CO)cc1-c1sccc1C",
    "pIC50": "< 4.00"
  },
  {
    "SMILES DATA": "COCCn1nc(C(=O)NC(C)(C)CO)cc1-c1cccs1",
    "pIC50": "< 4.00"
  },
  {
    "SMILES DATA": "CCCCCn1nc(C(=O)NC(C)(C)CO)cc1-c1cccs1",
    "pIC50": "< 4.00"
  },
  {
    "SMILES DATA": "CCCCn1nc(C(=O)NC(C)(C)CO)cc1-c1ccn(C)c1",
    "pIC50": "< 4.00"
  },
  {
    "SMILES DATA": "Cc1ccc(-n2nc(C(=O)NC(C)(C)CO)cc2-c2cccs2)cc1",
    "pIC50": "< 4.00"
  },
  {
    "SMILES DATA": "CCCCCn1nc(-c2ccco2)cc1C(=O)NC(C)(C)CO",
    "pIC50": "< 4.00"
  },
  {
    "SMILES DATA": "CCCCn1nc(C(=O)NC(C)(C)CO)cc1-c1cccs1",
    "pIC50": "< 4.00"
  },
  {
    "SMILES DATA": "CCCCn1nc(C(=O)NC(C)(C)CO)cc1-c1cccn1C(C)C",
    "pIC50": "< 4.00"
  },
  {
    "SMILES DATA": "CC(C)(CO)NC(=O)c1cc(-c2cccs2)n(-c2ccc(Cl)cc2)n1",
    "pIC50": "< 4.00"
  },
  {
    "SMILES DATA": "CCCCCn1nc(-c2cccs2)cc1C(=O)NC(C)(C)CO",
    "pIC50": "< 4.00"
  },
  {
    "SMILES DATA": "CCCCCn1nc(C(=O)NC(C)(C)CO)cc1-c1cc(Cl)cs1",
    "pIC50": "< 4.00"
  }
]
